Tested on: U-937
Experiment: In vitro inhibitory concentration required to inhibit the growth of U937 cells was determined at 10 hr by mitotic block reversibility assay
Format: functional
Details: Homo sapiens, U-937, 10 h
result-type: IC99 (µM)
Number only, in µM; omit the unit.

IC99 in this record for C=C1C[C@@H]2CC[C@@]34C[C@@H]5O[C@@H]6C(O[C@H]7CC[C@H](CC(=O)C[C@@H]8[C@@H](OC)[C@@H](C[C@H](O)CS(=O)(=O)c9ccc(OC)cc9)O[C@H]8C[C@H]8O[C@@H](CC[C@@H]1O2)C[C@@H](C)C8=C)O[C@@H]7[C@@H]6O3)[C@H]5O4 : 0.03

Lab note: C=C1C[C@@H]2CC[C@@]34C[C@@H]5O[C@@H]6C(O[C@H]7CC[C@H](CC(=O)C[C@@H]8[C@@H](OC)[C@@H](C[C@H](O)CS(=O)(=O)c9ccc(Cl)cc9)O[C@H]8C[C@H]8O[C@@H](CC[C@@H]1O2)C[C@@H](C)C8=C)O[C@@H]7[C@@H]6O3)[C@H]5O4 gave IC99 of 0.03

The molecule C=C1C[C@@H]2CC[C@@]34C[C@@H]5O[C@@H]6C(O[C@H]7CC[C@H](CC(=O)C[C@@H]8[C@@H](OC)[C@@H](C[C@H](O)CN(C)C)O[C@H]8C[C@H]8O[C@@H](CC[C@@H]1O2)C[C@@H](C)C8=C)O[C@@H]7[C@@H]6O3)[C@H]5O4 showed IC99 equal to 0.01
